Biological target: Histone-lysine N-methyltransferase NSD2 (Homo sapiens) (UniProt O96028)
Sequence (O96028 whole entry, looked up): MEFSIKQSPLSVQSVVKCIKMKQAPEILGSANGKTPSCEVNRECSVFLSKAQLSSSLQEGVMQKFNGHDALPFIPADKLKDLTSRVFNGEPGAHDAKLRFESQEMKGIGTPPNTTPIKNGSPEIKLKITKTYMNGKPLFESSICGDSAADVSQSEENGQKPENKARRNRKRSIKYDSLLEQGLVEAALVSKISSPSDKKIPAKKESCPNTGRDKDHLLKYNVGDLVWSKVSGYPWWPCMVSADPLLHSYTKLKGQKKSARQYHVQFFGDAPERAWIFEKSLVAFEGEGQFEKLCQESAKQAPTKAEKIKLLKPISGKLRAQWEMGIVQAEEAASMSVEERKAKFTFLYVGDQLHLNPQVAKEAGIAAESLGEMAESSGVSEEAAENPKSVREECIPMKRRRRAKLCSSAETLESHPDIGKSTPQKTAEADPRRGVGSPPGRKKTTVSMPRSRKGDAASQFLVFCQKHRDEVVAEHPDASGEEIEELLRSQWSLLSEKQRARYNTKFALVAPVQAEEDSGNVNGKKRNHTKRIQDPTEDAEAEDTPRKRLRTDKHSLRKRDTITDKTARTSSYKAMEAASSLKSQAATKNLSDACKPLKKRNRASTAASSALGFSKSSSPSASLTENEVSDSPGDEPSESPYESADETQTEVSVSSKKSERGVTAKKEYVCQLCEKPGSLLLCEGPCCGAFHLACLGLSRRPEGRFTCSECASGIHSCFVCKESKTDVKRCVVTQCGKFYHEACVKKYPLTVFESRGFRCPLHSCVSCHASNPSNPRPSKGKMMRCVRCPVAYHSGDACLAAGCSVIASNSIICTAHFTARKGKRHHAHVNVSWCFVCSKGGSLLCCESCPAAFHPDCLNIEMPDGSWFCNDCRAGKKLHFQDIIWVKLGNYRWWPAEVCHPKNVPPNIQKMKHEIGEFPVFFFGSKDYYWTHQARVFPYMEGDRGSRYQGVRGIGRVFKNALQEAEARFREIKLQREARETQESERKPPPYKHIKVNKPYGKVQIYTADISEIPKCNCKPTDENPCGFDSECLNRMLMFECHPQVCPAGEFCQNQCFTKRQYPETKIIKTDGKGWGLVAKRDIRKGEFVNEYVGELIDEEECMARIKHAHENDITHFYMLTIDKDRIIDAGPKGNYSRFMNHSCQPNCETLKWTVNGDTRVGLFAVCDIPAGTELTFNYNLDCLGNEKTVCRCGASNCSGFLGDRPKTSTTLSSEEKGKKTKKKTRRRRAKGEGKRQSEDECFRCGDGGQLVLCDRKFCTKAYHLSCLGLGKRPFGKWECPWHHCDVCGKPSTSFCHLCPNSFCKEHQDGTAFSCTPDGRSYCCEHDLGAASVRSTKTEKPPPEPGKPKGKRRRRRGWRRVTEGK
Experiment: NSD2 histone methyltransferase inhibitors, primary screen, biochemical, AlphaScreen, single concentration, set 2 (AID 743445)
Conditions: NSD2 peptide methylation, 120 min, at 12.5 µM
The whole screen tested about 310,000 compounds, of which about 1,700 (0.55%) were called active. No stated cut-off is given here; in the data, active means inhibition above about 50%; inactive means the rest. The sample as a whole holds a higher share of actives than the screen did.
Outcome codes: active, inactive

                                    compound  classification
 0             Cc1ccc(Nc2ncnc3c2cnn3C)c(C)c1        inactive
 1  CC(=O)Nc1cccc(-c2cc3nc(NCc4cccnc4)n(C)c(=O)c3s2)c1        inactive
 2         COc1ccc(S(=O)(=O)NCCCc2ccccc2)cc1        inactive
 3    Cn1ncc2c(NNC(=O)Cc3cccc4ccccc34)ncnc21        inactive
 4  COc1ccc([C@H]2OC(=O)C[C@H]2C(=O)N2CCN(c3ccccc3F)CC2)cc1OC        inactive
 5  Cc1ccc(S(=O)(=O)/N=C2\C=C(NS(=O)(=O)c3ccc(C)cc3)C(=O)c3ccccc32)cc1          active
 6       Cc1ccc(S(=O)(=O)N[C@H](CO)C(C)C)cc1        inactive
 7  O=C(CSc1nnc(-c2ccccn2)n1-c1ccc(Cl)cc1)Nc1ccccc1-c1ccccc1        inactive
 8  Nn1c(SCC(=O)N2c3ccccc3Sc3ccccc32)nnc1-c1n[nH]c2c1CCC2        inactive
 9             CCOc1ccc2nc(NC(=O)C3CC3)sc2c1        inactive
10           Cn1ncc2c(Nc3cccc4ccccc34)ncnc21          active
11  CCC(=O)N1CCc2cc(S(=O)(=O)NC(C(=O)N3CCc4ccccc4C3)C(C)C)ccc21 (stereo unspecified)          active
12      Nc1[nH][nH]c(=O)c1N=Nc1ccc2c(c1)OCO2        inactive
13  Clc1ccc(-n2c(SC/C=C/c3ccccc3)nnc2-c2ccco2)cc1        inactive
14  COc1ccc(S(=O)(=O)/N=C2\C=C(NS(=O)(=O)c3ccccc3)C(=O)c3ccccc32)cc1          active
15  Cc1ccc(-n2c(SCC(=O)Nc3ccc(S(=O)(=O)Nc4nccs4)cc3)nnc2-c2ccccn2)cc1        inactive
16  Cc1[nH][nH]c(=O)c1C(c1ccc2c(c1)OCO2)c1c(C)[nH][nH]c1=O          active
17  COc1ccc(C(=O)CSc2nnc(-c3cnccn3)n2-c2ccc(C)cc2)cc1        inactive
18  CCOC(=O)N1CCC(NC(=O)C(NS(=O)(=O)c2ccc3c(c2)CCN3C(=O)CC)C(C)C)CC1 (stereo unspecified)        inactive
19  CCC(=O)N1CCc2cc(S(=O)(=O)CCC(=O)N3CCN(c4ccccc4F)CC3)ccc21        inactive
20  CC(=O)N1CCc2cc(S(=O)(=O)NCCC(=O)N3CCCC3)ccc21        inactive

* * *

Target: Histone-lysine N-methyltransferase NSD2 (Homo sapiens) (UniProt O96028)
Test: NSD2 histone methyltransferase inhibitors, primary screen, biochemical, AlphaScreen, single concentration, set 2 (AID 743445)
Details: NSD2 peptide methylation, 120 min, at 12.5 µM, active compounds read high
The campaign covered roughly 310,000 compounds. About 1,700 (0.55%) were called active. Only a selection was taken, and actives are over-represented in it overall.
MEASURE: inhibition

>>> print(df.to_string())
                                   compound     measure        assay_result
0  CCOc1ccc(C(CC(=O)O)NC(=O)C23CC4CC(CC(C4)C2)C3)cc1OC (stereo not given)  inhibition      73.2% (active)
1  CN(CCc1ccccc1)C(=O)Cn1nc(-c2ccccc2)ccc1=O  inhibition    4.36% (inactive)
2  O=C(NCc1cccs1)C1CCCN(S(=O)(=O)c2ccc([N+](=O)[O-])cc2)C1 (stereo not given)  inhibition   -2.05% (inactive)
3  COc1ccc(-n2c(COc3ccccc3)nnc2SCC(=O)Nc2ccc3c(c2)OCO3)cc1  inhibition  -0.703% (inactive)
4  O=C(OCC(=O)N1CCN(c2ccccc2)CC1)c1ccc([N+](=O)[O-])s1  inhibition    1.02% (inactive)
5  COc1cc(C(=O)OCc2ccc([N+](=O)[O-])cc2)cc(OC)c1OC  inhibition  -0.924% (inactive)
6  CSc1nccc(-c2ccc(S(=O)(=O)Nc3ccc(C(O)(C(F)(F)F)C(F)(F)F)cc3)s2)n1  inhibition    3.98% (inactive)
7  O=S(=O)(c1ccccc1)N1CCC(c2nc3ccccc3o2)CC1  inhibition   -2.44% (inactive)
8  CCOc1ccc(C(CC(=O)O)NC(=O)Cc2ccccc2)cc1OC (stereo not given)  inhibition   0.638% (inactive)
9  NC(Cc1ccc(F)cc1)c1csc(Nc2nncc3ccccc23)n1 (stereo not given)  inhibition   -3.48% (inactive)

* * *

Biological target: Histone-lysine N-methyltransferase NSD2 (Homo sapiens)
Assay: NSD2 histone methyltransferase inhibitors, primary screen, biochemical, AlphaScreen, single concentration, set 2 (AID 743445)
Details: NSD2 peptide methylation, 120 min, at 12.5 µM, active compounds read high
Hit rate of the full screen: of about 310,000 compounds, about 1,700 (0.55%) were called active. The sample as a whole holds a higher share of actives than the screen did.
inhibition for assorted compounds
MEASURE: inhibition (%)

>>> print(df.to_string())
                                   compound                             target_entity     measure  assay_result
0  CCOc1ccc(N(CC(=O)Nc2c(C)n(C)n(-c3ccccc3)c2=O)S(=O)(=O)c2ccc(Cl)s2)cc1  Histone-lysine N-methyltransferase NSD2 (Homo sapiens)  inhibition         0.729
1  COc1ccc(C(C)NC(=O)C23CC4CC(CC(C4)C2)C3)cc1 (stereo not given)  Histone-lysine N-methyltransferase NSD2 (Homo sapiens)  inhibition         0.365
2  COc1ccccc1N(C)S(=O)(=O)c1ccc(C(=O)N2CCC(C(N)=O)CC2)cc1  Histone-lysine N-methyltransferase NSD2 (Homo sapiens)  inhibition         -2.68
3  COc1ccc(S(=O)(=O)NC(C)C)cc1C(=O)NC1CCCCC1  Histone-lysine N-methyltransferase NSD2 (Homo sapiens)  inhibition         0.027
4        CC(C)CSc1nnc(-c2cccnc2)n1Cc1ccccc1  Histone-lysine N-methyltransferase NSD2 (Homo sapiens)  inhibition         -2.26

* * *

Biological target: Histone-lysine N-methyltransferase NSD2 (Homo sapiens)
Experiment: NSD2 histone methyltransferase inhibitors, primary screen, biochemical, AlphaScreen, single concentration, set 2 (AID 743445)
Conditions: NSD2 peptide methylation, 120 min, at 12.5 µM
Hit rate of the full screen: of about 310,000 compounds, about 1,700 (0.55%) were called active. No stated cut-off is given here; in the data, active means inhibition above about 50%; inactive means the rest. This excerpt belongs to a sample that is enriched for actives.
Labels: yes (active), no (inactive)

In [3]: df
Out[3]:
                                    molecule  classification
 0  O=S(=O)(Nc1ccc(C(O)(C(F)(F)F)C(F)(F)F)cc1)c1ccc(-c2ccccn2)s1              no
 1  CS(=O)(=O)N(CC(=O)NCc1ccco1)c1ccc2c(c1)OCO2             yes
 2  COc1ccc(N2CCN(CCNS(=O)(=O)c3ccc(C(C)(C)C)cc3)CC2)cc1              no
 3  CCN(CC)CCOc1ccc2c(c1)C(=NNC(=O)c1ccccn1)c1cc(OCCN(CC)CC)ccc1-2             yes
 4    Cc1cc(=O)[nH]c(SCC(=O)Nc2ccc(F)cc2F)n1              no
 5           S=C(NCc1ccc2c(c1)OCO2)NCc1ccco1              no
 6  Cc1cccc(N=Nc2c(C)[nH]n(-c3ccccc3)c2=O)c1              no
 7  O=C(O)c1ccccc1N=N/C(=N/Nc1cc(S(=O)(=O)O)ccc1O)c1ccccc1             yes
 8  O=C(CSc1nnc(COc2ccccc2)n1Cc1ccco1)c1ccc2ccccc2c1              no
 9      COC(=O)c1ccccc1N=Nc1c(C)[nH][nH]c1=O              no
10  O=C(O)c1ccccc1/C=N/Nc1ccc(S(=O)(=O)Nc2ccc(Cl)cc2)cc1[N+](=O)[O-]              no
11  COC(=O)CC1CCc2cc(C)cc(C(CC(C)C)NC(=O)[C@H](CC(C)C)NC(=O)OCc3ccccc3)c2O1 (some centres not stated)              no
12  Cc1ccnc(N2CCCC(C(=O)NC3CC3)C2)n1 (configuration not stated)              no
13     c1csc(-c2nnc(SCc3nc4ccccc4[nH]3)o2)c1              no
14  Cc1[nH]n(-c2ccccc2)c(=O)c1N=Nc1ccccc1C(=O)N1CCCCC1             yes
15  COc1ccc(OC)c(-c2csc(NC(=O)COC(=O)C3CC3)n2)c1              no
16      O=C(CSc1nc2ccccc2s1)NN=Cc1ccc(O)cc1O              no
17  CC(C)NC(=O)C1(C)CCCCCN1C(=O)c1ccc(-c2ccccc2)cc1 (configuration not stated)              no
18  O=C(NC1CCCCCC1)C1CCN(C(=O)c2ccc(Cl)cc2)CC1              no
19      Cc1cccc(OCC(=O)NCCCNC(=O)c2ccccn2)c1              no
20           CCOc1cc2ccccc2cc1C(=O)Nc1ccccn1              no
21  CCN1CCN(C(=O)C2CCCN(S(=O)(=O)c3ccc(OC)c(OC)c3)C2)CC1 (configuration not stated)              no

Just for reference, PubChem BioAssay AID743445 is where these values come from.
